- test.target: human S1P3 receptor (Homo sapiens, UniProt Q99500)
- Construct: cell line established at Solvay Pharmaceuticals; host or cells: CHO K1 (CHO/Gα16/AEQ/h-S1P3)
- Sequence (Q99500 whole entry): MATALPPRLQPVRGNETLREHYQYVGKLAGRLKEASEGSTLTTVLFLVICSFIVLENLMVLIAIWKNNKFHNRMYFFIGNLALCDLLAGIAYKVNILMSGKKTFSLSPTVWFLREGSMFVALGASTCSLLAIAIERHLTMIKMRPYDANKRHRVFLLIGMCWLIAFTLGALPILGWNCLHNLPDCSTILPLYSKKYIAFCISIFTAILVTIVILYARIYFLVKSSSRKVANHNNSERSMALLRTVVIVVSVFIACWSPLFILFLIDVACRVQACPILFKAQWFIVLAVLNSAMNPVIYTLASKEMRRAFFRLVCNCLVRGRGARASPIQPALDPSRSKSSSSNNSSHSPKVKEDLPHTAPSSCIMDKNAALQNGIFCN
- experimental.details: In vitro functional activity (agonism), CHO-human-S1P3-Aequorin assay
- Type: cell-based
- assay.setup: read-out: S1P3 pEC50 (converted)
Counter-ions that a name gives are not always drawn.
measured.attribute: EC50

1. Cc1cc(OCC2CCC3CC2C3(C)C)ccc1C1CN(CCC(=O)O)CCO1 (stereo not shown) = > 10 µM
2. COc1cc(C2CN(CCC(=O)O)CCO2)ccc1OCc1ccccc1C(F)(F)F.Cl (stereo not shown) [Compound 66, hydrochloride] = > 10 µM
3. O=C(O)CCN1CCOC(c2ccc(C(=O)Nc3c(Cl)cccc3Cl)cc2)C1 (stereo not shown) [Compound 53, hydrochloride] = > 10 µM
4. O=C(O)CCN1CCOC(c2ccc(OCCCc3ccccc3)cc2)C1 (stereo not shown) [Compound 16, trifluoroacetic acid salt] = 3.98 µM
